Protocol details: Oral bioavailability in mouse at 2 mg/kg
Assay type: ADME, organism-based
Settings: in vivo
Experimental endpoint: bioavailability (%)

# Molecule, Experimental endpoint, Recorded result
data = [
    ("O=C(O)c1n[nH]c2c1CC(c1cccnc1F)CC2 (racemic)", "bioavailability", 47),
    ("O=C(O)c1n[nH]c2c1CC(c1cc(F)ccc1F)CC2 (racemic)", "bioavailability", 53),
]

###

Protocol details: Volume of distribution at steady state in mouse at 1 mg/kg, iv or 2 mg/kg, po
Assay type: ADME, organism-based
Settings: in vivo, read-out: Vdss
Reported values of Vd for individual entries
Experimental endpoint: Vd (L/kg)

# Molecule, Output unit, Recorded result
data = [
    ("O=C(O)c1n[nH]c2c1CC(c1cccnc1F)CC2 (racemic)", "L/kg", 2.4),
    ("O=C(O)c1n[nH]c2c1CC(c1cc(F)ccc1F)CC2 (racemic)", "L/kg", 1.4),
]

###

Protocol details: Plasma clearance in mouse at 1 mg/kg, iv or 2 mg/kg, po
Type: ADME, organism-based

# Molecule, Output unit, clearance
rows = [
    ("O=C(O)c1n[nH]c2c1CC(c1cccnc1F)CC2 (racemic)", "mL/min/kg", 21),
    ("O=C(O)c1n[nH]c2c1CC(c1cc(F)ccc1F)CC2 (racemic)", "mL/min/kg", 8.3),
]

###

Assayed system: Hydroxycarboxylic acid receptor 2 (Homo sapiens) (UniProt Q8TDS4)
Sequence (Q8TDS4 whole entry): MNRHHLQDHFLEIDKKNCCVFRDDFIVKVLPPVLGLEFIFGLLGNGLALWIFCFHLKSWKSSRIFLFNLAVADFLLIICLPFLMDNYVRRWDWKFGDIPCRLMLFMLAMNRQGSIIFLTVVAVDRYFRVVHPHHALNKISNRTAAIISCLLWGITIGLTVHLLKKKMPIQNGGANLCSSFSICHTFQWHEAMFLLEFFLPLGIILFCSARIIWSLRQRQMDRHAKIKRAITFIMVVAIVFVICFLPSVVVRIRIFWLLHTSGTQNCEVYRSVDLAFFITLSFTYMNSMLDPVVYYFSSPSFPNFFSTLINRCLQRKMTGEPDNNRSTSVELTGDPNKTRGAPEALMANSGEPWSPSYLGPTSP
Protocol details: Displacement of [3H]niacin from human niacin receptor expressed in […] cells at 25 uM in absence of 5% human serum
Type: cell-based
Is Activity at least 60%? Then Met. If not, Not met.

# Compound, Assayed system, Class name
rows = [
    ("Fc1ncccc1C1CCC2=C(C1)C(=C1N=NN=N1)N=N2 (stereo unspecified)", "Hydroxycarboxylic acid receptor 2 (Homo sapiens) (UniProt Q8TDS4)", "Not met"),
    ("O=C(O)c1n[nH]c2c1CCC(c1ccccc1)C2 (racemic)", "Hydroxycarboxylic acid receptor 2 (Homo sapiens) (UniProt Q8TDS4)", "Met"),
    ("O=C(O)c1n[nH]c2c1CC(c1cccnc1F)CC2 (racemic)", "Hydroxycarboxylic acid receptor 2 (Homo sapiens) (UniProt Q8TDS4)", "Met"),
    ("O=C(O)c1n[nH]c2c1CC(c1cc(F)ccc1F)CC2 (stereo unspecified)", "Hydroxycarboxylic acid receptor 2 (Homo sapiens) (UniProt Q8TDS4)", "Not met"),
    ("O=C(O)c1n[nH]c2c1CC(c1ccccc1)CC2 (racemic)", "Hydroxycarboxylic acid receptor 2 (Homo sapiens) (UniProt Q8TDS4)", "Not met"),
]
